# Assay details: The minimum inhibitory concentration was measured against Herpes simplex virus type 1 (KOS strain) on E6SM cells
# Assay type: functional
# Test parameters: Human alphaherpesvirus 1
Threshold-based label: MIC under 0.04 µg/mL gives yes (1), MIC not under 0.04 µg/mL gives no (0).

- Chem smiles: "CC(C)(C)c1cn2c(O)c3c(nc2n1)N(COC(CO)CO)CN3"
  Class name: "yes (1)"
- Chem smiles: "O=c1[nH]c(=O)n([C@H]2C[C@H](O)[C@@H](CO)O2)cc1/C=C/Br"
  Class name: "yes (1)"
- Chem smiles: "OCCOCN1CNc2c1nc1nc(-c3ccc(Br)cc3)cn1c2O"
  Class name: "no (0)"
- Chem smiles: "OCC(CO)OCN1CNc2c1nc1nc(-c3ccc(-c4ccccc4)cc3)cn1c2O"
  Class name: "yes (1)"
- Chem smiles: "O=c1[nH]c(=O)n([C@H]2C[C@H](O)[C@@H](CO)O2)cc1I"
  Class name: "no (0)"
